organism: Homo sapiens; experiment: Antigelling activity expressed as ratio of soluble sickle hemoglobin (HbS) of compound (g/dL) and that of control at 10 mM concentration; type: functional
Value Type: Activity
API doc: respond with a numeric literal and nothing else, no unit.

Below are worked cases with known answers.
Compound	Value Type	Quantitative Readout
CC(=O)OC(C/C(C)=C/C(=O)O)c1ccc2c(c1)CCC(C)(C)O2 (stereo unspecified)	Activity	1.03
CC(C)(Oc1ccc(Cl)cc1)C(=O)O [CLOFIBRIC ACID]	Activity	1.064
CC(C(=O)O)c1ccc2c(c1)CCC(C)(C)O2 (stereo unspecified)	Activity	1.028
CC1(C)CCc2cc(CCCC(=O)O)ccc2O1	Activity	1.086

// field: Activity; key: "CC1(C)CCc2cc(C(=O)O)ccc2O1" ; value = 1.043

// field: Activity; key: "CC1(C)CCc2cc(CCC(=O)O)ccc2O1" ; value = 1.077

----------
species on record: Homo sapiens; assay: Antigelling activity expressed as ratio of soluble sickle hemoglobin (HbS) of compound (g/dL) and that of control at 5 mM concentration.; type: functional
Value Type: Activity
API doc: respond with a numeric literal and nothing else, no unit.

Below are worked cases with known answers.
Compound	Quantitative Readout
CC1(C)CCc2cc(CCC(=O)O)ccc2O1	1.045
CC(=O)OC(C/C(C)=C/C(=O)O)c1ccc2c(c1)CCC(C)(C)O2 (centres undefined)	1.01
CC(C)(Oc1ccc(Cl)cc1)C(=O)O [CLOFIBRIC ACID]	1.018

We now examine a further compound.
// field: Activity; key: CC(C(=O)O)c1ccc2c(c1)CCC(C)(C)O2 (centres undefined) ; value = 1.011

----------
organism: Homo sapiens; assay: Antigelling activity expressed as ratio of soluble sickle hemoglobin (HbS) of compound (g/dL) and that of control at 40 mM concentration; type: functional
Measured Activity, listed per entry.
API doc: respond with a numeric literal and nothing else, no unit.

Compound	Activity
CC(C(=O)O)c1ccc2c(c1)CCC(C)(C)O2 (stereo unspecified)	1.21
CC1(C)CCc2cc(CCCC(=O)O)ccc2O1	1.299
Cc1ccc(C)c(OCCCC(C)(C)C(=O)O)c1	1.234
N[C@@H](Cc1ccccc1)C(=O)O	1.178
CC(=O)OC(C/C(C)=C/C(=O)O)c1ccc2c(c1)CCC(C)(C)O2 (stereo unspecified)	1.188

// field: Activity; key: "CC1(C)CCc2cc(CCC(=O)O)ccc2O1" ; value = 1.297
